Data origin: patent US20260335388A1

System: HSJD-RBT-5 retinoblastoma cells
protocol_summary: cells
Format: cell-based
stated_conditions: Homo sapiens; read-out: IC50, Topotecan with VCN-01 (10 MOI)
observable: IC50 (nM)
Give the number; nM is assumed, so skip it.

## Task Check the records and state IC50 for CC[C@@]1(O)C(=O)OCc2c1cc1n(c2=O)Cc2cc3c(CN(C)C)c(O)ccc3nc2-1 [Topotecan, topotecan]
## Result 586

* * *

Tested on: HSJD-RBT-2 retinoblastoma cells
protocol_summary: Antiproliferative activity (MTS), HSJD-RBT-2
Format: cell-based
stated_conditions: Homo sapiens; read-out: IC50, Topotecan single agent
observable: pIC50
Please express pIC50 as -log10 of the molar concentration.

## Task Check the records and state pIC50 for CC[C@@]1(O)C(=O)OCc2c1cc1n(c2=O)Cc2cc3c(CN(C)C)c(O)ccc3nc2-1 [Topotecan, topotecan]
## Result 8.13

* * *

System: HSJD-RBVS-10 retinoblastoma cells
protocol_summary: cells
Assay type: cell-based
stated_conditions: Homo sapiens, read-out: IC50, Melphalan with VCN-01 (10 MOI)
observable: IC50 (nM)
Give the number; nM is assumed, so skip it.

## Task Provide IC50, system HSJD-RBVS-10 retinoblastoma cells, entry "N[C@@H](Cc1ccc(N(CCCl)CCCl)cc1)C(=O)O"
## Result 2020

* * *

System: HSJD-RBT-5 retinoblastoma cells
protocol_summary: cells
Format: cell-based
stated_conditions: Homo sapiens, read-out: IC50, Melphalan with VCN-01 (10 MOI)
observable: IC50

## Task Check the records and state IC50 for N[C@@H](Cc1ccc(N(CCCl)CCCl)cc1)C(=O)O [Melphalan, melphalan]
## Result 0.636 µM

* * *

System: HSJD-RBT-5 retinoblastoma cells
protocol_summary: cells
Assay type: cell-based
stated_conditions: Homo sapiens, read-out: IC50, Melphalan single agent
observable: IC50

## Task Check the records and state IC50 for "N[C@@H](Cc1ccc(N(CCCl)CCCl)cc1)C(=O)O"
## Result 478 nM

* * *

Test system: HSJD-RBT-7 retinoblastoma cells
protocol_summary: cells
Format: cell-based
stated_conditions: Homo sapiens; read-out: IC50, Topotecan single agent
observable: pIC50
Please express pIC50 as -log10 of the molar concentration.

## Task Check the records and state pIC50 for CC[C@@]1(O)C(=O)OCc2c1cc1n(c2=O)Cc2cc3c(CN(C)C)c(O)ccc3nc2-1 [Topotecan, topotecan]
## Result 7.82
